- TESTED_TARGET: UniProt:Q96EB6
- Sequence (Q96EB6 1-747): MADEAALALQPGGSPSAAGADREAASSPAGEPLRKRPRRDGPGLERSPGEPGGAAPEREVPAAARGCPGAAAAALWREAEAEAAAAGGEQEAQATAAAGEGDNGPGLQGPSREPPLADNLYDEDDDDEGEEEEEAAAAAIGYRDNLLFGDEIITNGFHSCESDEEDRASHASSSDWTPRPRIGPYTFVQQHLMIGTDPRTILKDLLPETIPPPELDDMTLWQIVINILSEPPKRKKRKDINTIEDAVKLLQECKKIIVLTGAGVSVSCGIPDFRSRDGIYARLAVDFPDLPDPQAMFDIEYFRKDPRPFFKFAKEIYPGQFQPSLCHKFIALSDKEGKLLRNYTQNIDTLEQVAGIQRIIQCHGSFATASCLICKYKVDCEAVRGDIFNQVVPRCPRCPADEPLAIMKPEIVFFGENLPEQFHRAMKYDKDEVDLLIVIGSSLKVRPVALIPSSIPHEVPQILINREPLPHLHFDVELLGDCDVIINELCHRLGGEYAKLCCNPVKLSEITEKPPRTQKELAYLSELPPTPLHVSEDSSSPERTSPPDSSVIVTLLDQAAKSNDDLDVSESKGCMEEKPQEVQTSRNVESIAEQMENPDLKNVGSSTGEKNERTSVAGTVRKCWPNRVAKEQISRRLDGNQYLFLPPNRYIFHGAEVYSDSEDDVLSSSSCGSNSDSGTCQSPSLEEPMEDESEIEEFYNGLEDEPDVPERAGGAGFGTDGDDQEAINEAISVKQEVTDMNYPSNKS
- EXPERIMENT_NOTES: TAMRA based mass spectrometry assay of SIRT1 activity
- Assay type: biochemical
- CONDITION_CONTEXT: TAMRA assay; percent maximum fold activation; read-out: TAMRA % Fold Act
Reported Emax is given for each of the following compounds.

CCOc1cc(NC(=O)c2c(C)nn3ccc(-c4ccccc4C(F)(F)F)nc23)ccn1 [Compound 707]; ≥ 350%
Cc1cc(C)nc(NC(=O)c2c(C)nn3ccc(-c4ccccc4C(F)(F)F)nc23)n1 [Compound 777]; ≥ 350%
O=C(Nc1cnc2ccc(-c3ccccc3F)nn12)c1cccc(N2CCC2)n1 [Compound 302]; ≥ 350%
Cc1nc2ccc(-c3ccccc3Cl)nn2c1NC(=O)c1ccncn1 [Compound 348]; < 350%

Prompt: # return recorded Emax for entry CCOc1ccc(NC(=O)c2cnn3ccc(-c4ccccc4OC(F)(F)F)nc23)nn1 [Compound 636]
Response: ≥ 350%

Prompt: # return recorded Emax for entry Cc1cc(C)nc(C(=O)Nc2cnc3c(C)c(C)c(-c4ccccc4Cl)nn23)n1 [Compound 388]
Response: ≥ 350%

Prompt: # return recorded Emax for entry COCc1nccc(NC(=O)c2c(C)nc3c(C)cc(-c4ccccc4C(F)(F)F)nn23)n1 [Compound 733]
Response: ≥ 350%

Prompt: # return recorded Emax for entry Cc1cccc(NC(=O)c2c(C)nc3ccc(-c4cccc(OC[C@H](O)CO)c4)nn23)n1 [Compound 790]
Response: ≥ 350%

Prompt: # return recorded Emax for entry O=C(Nc1ccc(N2CCOCC2)cn1)c1cnc2ccc(-c3ccccc3C(F)(F)F)nn12 [Compound 199]
Response: ≥ 350%

Prompt: # return recorded Emax for entry Cc1nc2c(OC[C@H](O)CO)cc(-c3ccccc3C(F)(F)F)nn2c1C(=O)Nc1cccnn1 [Compound 773]
Response: ≥ 350%

Prompt: # return recorded Emax for entry Cc1nc2ccc(-c3ccccc3C(F)(F)F)nn2c1NC(=O)c1ccncn1 [Compound 377]
Response: < 350%

Prompt: # return recorded Emax for entry O=C(Nc1cccc(OCC(F)(F)F)n1)c1cnc2ccc(-c3ccccc3F)nn12 [Compound 258]
Response: < 350%

Prompt: # return recorded Emax for entry O=C(Nc1ccnc(OCC(O)CO)c1)c1cnc2ccc(-c3ccccc3Cl)nn12 (centres unmarked) [Compound 283]
Response: < 350%
